Hello, the source for this data is ChEMBL document CHEMBL4346659, in case you need it.

Biological target: Receptor tyrosine-protein kinase erbB-2 (Homo sapiens)
Sequence (P04626 whole entry): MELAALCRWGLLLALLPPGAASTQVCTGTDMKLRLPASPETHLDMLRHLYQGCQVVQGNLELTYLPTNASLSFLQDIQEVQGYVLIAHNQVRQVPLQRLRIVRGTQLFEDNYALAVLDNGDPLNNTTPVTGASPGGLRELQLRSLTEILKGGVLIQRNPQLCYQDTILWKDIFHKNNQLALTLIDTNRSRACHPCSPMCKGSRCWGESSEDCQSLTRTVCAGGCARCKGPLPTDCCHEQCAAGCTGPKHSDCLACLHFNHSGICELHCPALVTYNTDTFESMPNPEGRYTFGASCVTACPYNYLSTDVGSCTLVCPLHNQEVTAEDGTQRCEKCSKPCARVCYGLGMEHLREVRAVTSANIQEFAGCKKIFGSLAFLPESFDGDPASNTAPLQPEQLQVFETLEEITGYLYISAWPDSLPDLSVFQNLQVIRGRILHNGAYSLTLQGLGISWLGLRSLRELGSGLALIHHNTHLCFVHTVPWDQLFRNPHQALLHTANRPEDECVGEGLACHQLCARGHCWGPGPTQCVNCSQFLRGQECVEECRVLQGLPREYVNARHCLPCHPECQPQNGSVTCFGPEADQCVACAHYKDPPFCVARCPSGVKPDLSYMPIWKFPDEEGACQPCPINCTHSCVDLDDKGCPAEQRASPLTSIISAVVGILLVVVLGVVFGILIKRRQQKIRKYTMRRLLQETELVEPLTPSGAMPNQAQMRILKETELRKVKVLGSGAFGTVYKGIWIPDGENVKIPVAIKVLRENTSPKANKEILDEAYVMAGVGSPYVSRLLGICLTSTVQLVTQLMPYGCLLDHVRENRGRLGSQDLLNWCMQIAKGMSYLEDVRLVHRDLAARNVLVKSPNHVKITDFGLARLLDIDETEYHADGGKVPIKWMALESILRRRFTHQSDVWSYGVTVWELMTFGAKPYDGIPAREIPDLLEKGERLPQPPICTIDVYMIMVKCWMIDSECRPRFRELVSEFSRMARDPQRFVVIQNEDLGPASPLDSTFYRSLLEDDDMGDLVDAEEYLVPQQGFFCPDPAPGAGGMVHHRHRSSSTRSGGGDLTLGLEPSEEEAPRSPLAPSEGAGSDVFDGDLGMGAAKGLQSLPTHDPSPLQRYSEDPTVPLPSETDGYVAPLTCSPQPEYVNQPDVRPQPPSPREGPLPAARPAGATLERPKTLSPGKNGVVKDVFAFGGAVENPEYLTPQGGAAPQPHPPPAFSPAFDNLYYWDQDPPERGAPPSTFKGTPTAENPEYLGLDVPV
Test: Inhibition of human recombinant HER2 using biotinyl-beta amyloid beta amyloid beta AAEEEEYFELVAKKK measured after 10 mins in the presence of ATP by HTRF assay
Measurement kind: IC50

Which measured IC50 value corresponds to `Nc1ncnc2c1c(-c1ccc(Oc3ccccc3)cc1)cn2C[C@H]1CCCN1C[C@@H]1CO1` ?
> 1 µM

----------
Target: UniProtKB P06239
Sequence (P06239 whole entry): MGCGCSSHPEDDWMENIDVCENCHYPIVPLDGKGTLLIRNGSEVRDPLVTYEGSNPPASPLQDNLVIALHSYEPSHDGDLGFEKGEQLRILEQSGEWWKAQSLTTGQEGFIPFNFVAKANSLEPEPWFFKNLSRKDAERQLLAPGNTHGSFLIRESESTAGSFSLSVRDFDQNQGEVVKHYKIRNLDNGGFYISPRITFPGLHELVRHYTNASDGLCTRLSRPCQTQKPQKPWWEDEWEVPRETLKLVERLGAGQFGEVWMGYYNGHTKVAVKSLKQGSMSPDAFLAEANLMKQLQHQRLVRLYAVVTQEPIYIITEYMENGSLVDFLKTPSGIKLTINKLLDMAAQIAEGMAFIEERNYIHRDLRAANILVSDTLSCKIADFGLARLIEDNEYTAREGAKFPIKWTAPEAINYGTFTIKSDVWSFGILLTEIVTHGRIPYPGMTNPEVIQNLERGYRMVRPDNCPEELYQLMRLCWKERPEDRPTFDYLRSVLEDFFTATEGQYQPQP
Experiment: Inhibition of human recombinant LCK using Ulight-Poly GAT[EAY(1:1:1) as substrate measured after 10 mins in the presence of ATP by LANCE method
Measurement kind: IC50
Could you write the number and then its unit?

Which measured IC50 value corresponds to `Nc1ncnc2c1c(-c1ccc(Oc3ccccc3)cc1)cn2C[C@H]1CCCN1C[C@@H]1CO1` ?
31 nM

----------
Tested on: Ramos
Experiment: Antiproliferative activity against human Ramos cells
Format: functional, cell-based
Details: Homo sapiens, Ramos
Measurement kind: pIC50
Note on pIC50: it is the negative log10 of concentration, concentration in mol/L.

Below, each entry is followed by its recorded pIC50 result.
[[record]]
smiles_repr = "Nc1ncnc2c1c(-c1ccc3c(c1)OCO3)cn2CC1CCN(C[C@@H]2CO2)CC1"
observed = 4.96

[[record]]
smiles_repr = "Nc1ncnc2c1c(-c1ccc(NC(=O)c3ccccc3)cc1)cn2[C@H]1CCN(C[C@@H]2CO2)C1"
observed = 5.65

[[record]]
smiles_repr = "CC1(CN2CC[C@H](n3cc(-c4ccc5c(c4)OCO5)c4c(N)ncnc43)C2)COC1"
observed = 4.69

[[record]]
smiles_repr = "COC(CN1CC[C@H](n2cc(-c3ccc4c(c3)OCO4)c3c(N)ncnc32)C1)OC"
observed = 4.60

[[record]]
smiles_repr = "Nc1ncnc2c1c(-c1ccc3c(c1)OCO3)cn2C[C@H]1CCN(C[C@@H]2CO2)C1"
observed = 4.57


Which measured pIC50 value corresponds to `Nc1ncnc2c1c(-c1ccc3c(c1)OCO3)cn2C1CCN(C2COC2)CC1` ?
4.42

Which measured pIC50 value corresponds to `Nc1ncnc2c1c(-c1ccc(C(=O)Nc3ccc(Oc4ccccc4)cc3)cc1)cn2[C@H]1CCN(C[C@@H]2CO2)C1` ?
5.44

Which measured pIC50 value corresponds to `Nc1ncnc2c1c(-c1ccc(Oc3ccccc3)cc1)cn2C[C@H]1CCCN1C(CO)CO` ?
4.82

Which measured pIC50 value corresponds to `C=CC(=O)N1CCC[C@@H](n2nc(-c3ccc(Oc4ccccc4)cc3)c3c(N)ncnc32)C1` ?
5.30

Which measured pIC50 value corresponds to `Nc1ncnc2c1c(-c1ccc3c(c1)OCO3)cn2C[C@@H]1CCCN1C[C@@H]1CO1` ?
4.54

----------
Consider the following compounds and their measured IC50 readings.
Tested on: JeKo-1
Test: Antiproliferative activity against human JeKo1 cells
Type: functional, cell-based
Conditions: Homo sapiens, JeKo-1
Numeric only. Scale: µM

Below, each entry is followed by its recorded IC50 result.
[[record]]
smiles_repr = "Nc1ncnc2c1c(-c1ccc3c(c1)OCO3)cn2CC1CCN(C[C@@H]2CO2)CC1"
observed = 15.3

[[record]]
smiles_repr = "Nc1ncnc2c1c(-c1ccc3c(c1)OCO3)cn2[C@@H]1CCN(C[C@H]2CO2)C1"
observed = 32.5


Turning now to a further compound:
Which measured IC50 value corresponds to `Nc1ncnc2c1c(-c1ccc(C(=O)Nc3ccc(Oc4ccccc4)cc3)cc1)cn2[C@H]1CCN(C[C@@H]2CO2)C1` ?
2.07

----------
Molecular target: Tyrosine-protein kinase BTK (Homo sapiens, UniProt Q06187)
Sequence (Q06187 whole entry): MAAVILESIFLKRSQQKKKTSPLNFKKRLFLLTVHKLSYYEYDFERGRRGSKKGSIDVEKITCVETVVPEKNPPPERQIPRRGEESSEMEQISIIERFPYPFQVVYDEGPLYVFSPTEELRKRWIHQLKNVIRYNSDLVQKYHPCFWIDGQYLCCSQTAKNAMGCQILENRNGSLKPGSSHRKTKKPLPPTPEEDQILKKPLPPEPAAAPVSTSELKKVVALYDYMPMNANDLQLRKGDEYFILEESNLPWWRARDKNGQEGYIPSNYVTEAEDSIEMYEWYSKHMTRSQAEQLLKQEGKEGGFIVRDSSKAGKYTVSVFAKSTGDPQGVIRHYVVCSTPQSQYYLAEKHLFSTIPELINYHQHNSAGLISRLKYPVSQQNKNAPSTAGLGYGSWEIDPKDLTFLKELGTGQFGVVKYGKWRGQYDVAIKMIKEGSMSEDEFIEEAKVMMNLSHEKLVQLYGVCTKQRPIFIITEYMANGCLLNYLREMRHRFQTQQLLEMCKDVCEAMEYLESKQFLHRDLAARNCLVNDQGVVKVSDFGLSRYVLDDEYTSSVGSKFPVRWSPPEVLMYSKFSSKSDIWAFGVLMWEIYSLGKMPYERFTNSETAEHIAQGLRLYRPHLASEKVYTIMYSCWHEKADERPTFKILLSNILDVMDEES
Assay: Inhibition of BTK (unknown origin) at 1 uM in the presence of ATP by caliper mobility shift assay relative to control
The threshold is inclusive: inhibition of exactly 60% counts as met; values below receive not met.

[[record]]
smiles_repr = "CC1(C(=O)N2CC[C@H](n3cc(-c4ccc5c(c4)OCO5)c4c(N)ncnc43)C2)COC1"
answer_label = "not met"

[[record]]
smiles_repr = "Nc1ncnc2c1c(-c1ccc(Oc3ccccc3)cc1)cn2C[C@H]1CCCN1C[C@@H](O)CO"
answer_label = "met"

[[record]]
smiles_repr = "Nc1ncnc2c1c(-c1ccc(Oc3ccccc3)cc1)cn2C[C@H]1CCCN1C[C@@H]1CO1"
answer_label = "met"

[[record]]
smiles_repr = "Nc1ncnc2c1c(-c1ccc3c(c1)OCO3)cn2C[C@@H]1CCN(C[C@@H]2CO2)C1"
answer_label = "met"

[[record]]
smiles_repr = "Nc1ncnc2c1c(-c1ccc(Oc3ccccc3)cc1)cn2[C@H]1CCN(C[C@@H]2CO2)C1"
answer_label = "met"


Please find the next molecule below.
Item `Nc1ncnc2c1c(-c1ccc3c(c1)OCO3)cn2[C@H]1CCN(Cc2cc(F)cc(F)c2)C1` with inhibition of 60% or above?
not met

----------
Test system: JeKo-1
Experiment: Antiproliferative activity against human JeKo1 cells
Type: functional, cell-based
Conditions: Homo sapiens, JeKo-1
Consider the following compounds and their measured IC50 readings.
Numeric only. Scale: µM

[[record]]
smiles_repr = "Nc1ncnc2c1c(-c1ccc3c(c1)OCO3)cn2C[C@@H]1CCN(C[C@@H]2CO2)C1"
measurement_kind = "IC50"
observed = 10.3

[[record]]
smiles_repr = "Nc1ncnc2c1c(-c1ccc3c(c1)OCO3)cn2C1CCN(C[C@@H]2CO2)CC1"
measurement_kind = "IC50"
observed = 12.9

[[record]]
smiles_repr = "Nc1ncnc2c1c(-c1ccc3c(c1)OCO3)cn2C[C@H]1CCCN(C[C@@H]2CO2)C1"
measurement_kind = "IC50"
observed = 7.96

[[record]]
smiles_repr = "Nc1ncnc2c1c(-c1cnc3[nH]ccc3c1)cn2[C@H]1CCN(C[C@@H]2CO2)C1"
measurement_kind = "IC50"
observed = 9.44

[[record]]
smiles_repr = "Nc1ncnc2c1c(-c1ccc(Oc3ccccc3)cc1)cn2C[C@H]1CCCN1C[C@@H]1CO1"
measurement_kind = "IC50"
observed = 11.1


Turning now to a further compound:
# value lookup — system JeKo-1, readout IC50, item `Nc1ncnc2c1c(-c1ccc(Oc3ccccc3)cc1)cn2C[C@H]1CCCN1C[C@@H](O)CO`
9.54

----------
Target: UniProt Q06187
Test: Inhibition of BTK (unknown origin) at 0.1 uM in the presence of ATP by caliper mobility shift assay relative to control
Measurement kind: inhibition (%)
Numeric only. Scale: %

# value lookup — system UniProt Q06187, readout inhibition, item `Nc1ncnc2c1c(-c1ccc(Oc3ccccc3)cc1)cn2[C@H]1CCN(C[C@H]2CO2)C1`
52

# value lookup — system UniProt Q06187, readout inhibition, item `CC1(C(=O)N2CC[C@H](n3cc(-c4ccc5c(c4)OCO5)c4c(N)ncnc43)C2)COC1`
-0.35

# value lookup — system UniProt Q06187, readout inhibition, item `Nc1ncnc2c1c(-c1ccc3c(c1)OCO3)cn2[C@H]1CCN(C[C@H]2CO2)C1`
62.2

# value lookup — system UniProt Q06187, readout inhibition, item `CC(C)(C)c1ccc(CN2CC[C@H](n3cc(-c4ccc5c(c4)OCO5)c4c(N)ncnc43)C2)cc1`
0.01

# value lookup — system UniProt Q06187, readout inhibition, item `Nc1ncnc2c1c(-c1cnc3[nH]ccc3c1)cn2C[C@H]1CCCN1C[C@@H]1CO1`
13.7

----------
Consider the following compounds and their measured inhibition readings.
Target: Tyrosine-protein kinase BTK (Homo sapiens)
Test: Inhibition of BTK (unknown origin) at 0.1 uM in the presence of ATP by caliper mobility shift assay relative to control

Below, each entry is followed by its recorded inhibition result.
[[record]]
compound = "Nc1ncnc2c1c(-c1cccc(-n3ncc4ccccc4c3=O)c1)cn2[C@H]1CCN(C[C@@H]2CO2)C1"
observed = "3.41%"

[[record]]
compound = "Nc1ncnc2c1c(-c1ccc(NC(=O)c3ccccc3)cc1)cn2[C@H]1CCN(C[C@@H]2CO2)C1"
observed = "2.53%"

[[record]]
compound = "Nc1ncnc2c1c(-c1ccc(Oc3ccccc3)cc1)cn2C[C@H]1CCCN1C(CO)CO"
observed = "18.3%"


Which measured inhibition value corresponds to `Nc1ncnc2c1c(-c1ccc3c(c1)OCO3)cn2C[C@H]1CCCN(C[C@@H]2CO2)C1` ?
34.7%

----------
Consider the following molecules and their measured inhibition readings.
Target: UniProt Q06187
Assay: Inhibition of BTK (unknown origin) at 0.1 uM in the presence of ATP by caliper mobility shift assay relative to control
Could you write the number and then its unit?

Below, each entry is followed by its recorded inhibition result.
[[record]]
molecule = "Nc1ncnc2c1c(-c1ccc3c(c1)OCO3)nn2C[C@H]1CCCN1C[C@@H]1CO1"
measurement_kind = "inhibition"
observed = "13.9%"

[[record]]
molecule = "Nc1ncnc2c1c(-c1ccc3c(c1)OCO3)cn2CC1CCCO1 (stereo unspecified)"
measurement_kind = "inhibition"
observed = "-6.11%"

[[record]]
molecule = "CN(C)C(=O)N1CC[C@H](n2cc(-c3ccc4c(c3)OCO4)c3c(N)ncnc32)C1"
measurement_kind = "inhibition"
observed = "1.87%"

[[record]]
molecule = "Nc1ncnc2c1c(-c1ccc3c(c1)OCO3)cn2C1CCN(C[C@@H]2CO2)CC1"
measurement_kind = "inhibition"
observed = "60.2%"

[[record]]
molecule = "Nc1ncnc2c1c(-c1cnc3[nH]ccc3c1)cn2[C@H]1CCN(C[C@@H]2CO2)C1"
measurement_kind = "inhibition"
observed = "12.8%"

[[record]]
molecule = "Nc1ncnc2c1c(-c1ccc3c(c1)OCO3)cn2[C@@H]1CCN(C[C@H]2CO2)C1"
measurement_kind = "inhibition"
observed = "15.2%"

[[record]]
molecule = "Nc1ncnc2c1c(-c1ccc3c(c1)OCO3)cn2[C@H]1CCN(C[C@@H]2CO2)C1"
measurement_kind = "inhibition"
observed = "87.6%"

[[record]]
molecule = "Nc1ncnc2c1c(-c1ccc3c(c1)OCO3)cn2C1=CCN(C[C@@H]2CO2)CC1"
measurement_kind = "inhibition"
observed = "1.81%"

[[record]]
molecule = "Nc1ncnc2c1c(-c1ccc3c(c1)OCO3)cn2CC1CCN(C[C@@H]2CO2)CC1"
measurement_kind = "inhibition"
observed = "14.2%"

[[record]]
molecule = "Nc1ncnc2c1c(-c1ccc(Oc3ccccc3)cc1)cn2C[C@H]1CCCN1C[C@@H]1CO1"
measurement_kind = "inhibition"
observed = "96.6%"


Which measured inhibition value corresponds to Nc1ncnc2c1c(-c1ccc3c(c1)OCO3)cn2[C@H]1CCN(CC2CCCO2)C1 (stereo partly specified) ?
3.01%

Which measured inhibition value corresponds to `NC(=O)CN1CC[C@H](n2cc(-c3ccc4c(c3)OCO4)c3c(N)ncnc32)C1` ?
12.6%

Which measured inhibition value corresponds to Nc1ncnc2c1c(-c1ccc3c(c1)OCO3)cn2[C@H]1CCN(CC2CO2)C1 (stereo partly specified) ?
70.1%
